# TARGET ENTITY: hERG potassium channel (Homo sapiens, UniProt Q12809)
# Sequence (Q12809 whole entry): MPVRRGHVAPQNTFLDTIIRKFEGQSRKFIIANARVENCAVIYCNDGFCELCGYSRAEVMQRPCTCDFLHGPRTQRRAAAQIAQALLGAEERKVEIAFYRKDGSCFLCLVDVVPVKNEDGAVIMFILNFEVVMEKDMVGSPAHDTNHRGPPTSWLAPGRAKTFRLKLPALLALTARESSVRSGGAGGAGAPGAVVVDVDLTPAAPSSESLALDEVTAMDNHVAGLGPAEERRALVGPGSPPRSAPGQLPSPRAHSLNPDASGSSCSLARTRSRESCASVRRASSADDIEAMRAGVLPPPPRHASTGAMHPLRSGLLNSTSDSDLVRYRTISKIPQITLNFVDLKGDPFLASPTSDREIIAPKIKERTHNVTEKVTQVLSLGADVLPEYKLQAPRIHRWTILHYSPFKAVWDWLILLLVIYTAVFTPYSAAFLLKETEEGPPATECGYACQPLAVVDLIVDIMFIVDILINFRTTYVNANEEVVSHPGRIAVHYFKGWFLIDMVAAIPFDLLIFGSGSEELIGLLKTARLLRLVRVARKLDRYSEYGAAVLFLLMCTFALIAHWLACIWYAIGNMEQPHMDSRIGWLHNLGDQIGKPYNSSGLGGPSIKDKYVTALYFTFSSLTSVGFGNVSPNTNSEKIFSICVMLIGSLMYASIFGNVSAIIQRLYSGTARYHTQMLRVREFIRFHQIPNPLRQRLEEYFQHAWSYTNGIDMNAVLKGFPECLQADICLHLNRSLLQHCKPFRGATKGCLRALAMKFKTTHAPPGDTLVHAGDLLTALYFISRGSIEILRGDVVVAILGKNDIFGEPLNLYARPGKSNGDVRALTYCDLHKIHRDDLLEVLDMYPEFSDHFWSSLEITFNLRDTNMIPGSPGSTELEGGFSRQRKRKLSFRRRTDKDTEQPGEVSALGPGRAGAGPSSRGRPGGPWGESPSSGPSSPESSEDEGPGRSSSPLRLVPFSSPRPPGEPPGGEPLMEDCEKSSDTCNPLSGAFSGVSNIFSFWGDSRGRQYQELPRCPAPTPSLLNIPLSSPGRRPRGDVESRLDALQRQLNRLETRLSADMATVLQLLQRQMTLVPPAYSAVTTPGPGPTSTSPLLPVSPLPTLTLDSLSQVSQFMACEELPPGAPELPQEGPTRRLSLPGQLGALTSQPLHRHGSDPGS
# ASSAY COMMENT: hERG screening assay (PatchXpress patch clamp, CHO cells)
# DETAILS: 10 μM test cmpd
Would you kindly list hERG Patch Clamp hERG % blk (10 μM test cmpd) for each of these compounds?
Write down the numeric answer in % and omit the unit.

Query :: Give the measured hERG Patch Clamp hERG % blk (10 μM test cmpd) of CCOC(=O)C1=C(C)Nc2nnnn2C1c1ccccc1-n1cccn1.Cl (centres unmarked) .
Result :: 44

Query :: Could you share which hERG Patch Clamp hERG % blk (10 μM test cmpd) value was measured for CC1=C(c2nnc(CCc3ccccc3)o2)C(c2cccc3ccccc23)n2nnnc2N1 (centres unmarked) ?
Result :: 78

Query :: I am curious: what hERG Patch Clamp hERG % blk (10 μM test cmpd) value has been reported for CC1=C(C(=O)OCc2ccccc2)C(c2ccc(N(C)C)cc2[N+](=O)[O-])n2nnnc2N1 (centres unmarked) ?
Result :: 78.5

Query :: Give the measured hERG Patch Clamp hERG % blk (10 μM test cmpd) of N#CC1=C(N)NC2=C(C(=O)CCC2)C1c1ccc(Br)cc1 (centres unmarked) .
Result :: 24.5

Query :: Name the reported hERG Patch Clamp hERG % blk (10 μM test cmpd) value associated with the compound CCCC1=C(C(=O)OCC)C(c2ccsc2)C2=C(CC(c3ccccc3)CC2=O)N1 (centres unmarked)
Result :: 90

---

# TARGET ENTITY: hERG potassium channel (Homo sapiens)
# ASSAY COMMENT: hERG screening assay (PatchXpress patch clamp, CHO cells)
# DETAILS: 10 μM test cmpd
REPORTED PROPERTY: hERG Patch Clamp hERG % blk (10 μM test cmpd) (%)
Quick reminder: number only, in %, skip the unit.

Query :: What does the record list as hERG Patch Clamp hERG % blk (10 μM test cmpd) for `CCOC(=O)C1=C(C)NC(C)=C(C(=O)OCC)C1c1sc2ccccc2c1C` ?
Result :: 66

Query :: Which hERG Patch Clamp hERG % blk (10 μM test cmpd) reading was recorded for the compound `CC1=C(C(=O)OCc2ccccc2)[C@@H](c2ccccc2-c2ccc(C)o2)n2nnnc2N1` ?
Result :: 41.5

Query :: Please give the measured hERG Patch Clamp hERG % blk (10 μM test cmpd) for this compound: CC1=C(C(=O)OCc2ccccc2)C(c2c(-c3ccc(C(=O)O)cc3)sc3ccccc23)n2nnnc2N1 (stereo not drawn)
Result :: 15.5

Query :: Would you kindly share the measured hERG Patch Clamp hERG % blk (10 μM test cmpd) for CC(=O)c1ccc(-c2ccccc2C2C(C(=O)OCc3ccccc3)=C(C)Nc3nnnn32)cc1 (stereo not drawn) ?
Result :: 38.5

Query :: // returns reported hERG Patch Clamp hERG % blk (10 μM test cmpd) for input `CCOC(=O)C1=C(C)NC(C)=C(C(=O)OCC)C1c1cccs1`
Result :: 48.5

Query :: So what's the measured hERG Patch Clamp hERG % blk (10 μM test cmpd) for this one? `CCOC(=O)C1=C(C)NC(C)=C(C(=O)OCC)C1c1ccccc1Br`
Result :: 21.5

Query :: hERG Patch Clamp hERG % blk (10 μM test cmpd) lookup needed for CC1=C(C(=O)NCc2ccccc2)C(c2ccc3ccccc3c2)n2nnnc2N1 (stereo not drawn) , thanks.
Result :: 22.5

Query :: So what does the record say about hERG Patch Clamp hERG % blk (10 μM test cmpd) for CC1=C(C(=O)OCc2ccccc2)C(c2csc3ccccc23)n2nnnc2N1 (stereo not drawn) ?
Result :: 52.5

Query :: Which value of hERG Patch Clamp hERG % blk (10 μM test cmpd) has been reported for CCOC(=O)C1=C(CC)Nc2nnnn2C1c1cccc2ccccc12 (stereo not drawn) in the records?
Result :: 30

---

# TARGET ENTITY: hERG potassium channel (Homo sapiens, UniProt Q12809)
# ASSAY COMMENT: hERG screening assay (PatchXpress patch clamp, CHO cells)
# DETAILS: 1 μM test cmpd
Field: hERG Patch Clamp hERG % blk (1 μM test cmpd). Provide a value for each of the compounds that follow.
The reply should contain only the number, in %.

Query :: Please report the recorded hERG Patch Clamp hERG % blk (1 μM test cmpd) for CCS(=O)(=O)N1CCN(c2cccc(OC)c2C2C(C(=O)OCc3ccccc3)=C(C)Nc3nnnn32)CC1 (stereo not drawn) .
Result :: 10

Query :: Dear colleague, I am looking for the recorded hERG Patch Clamp hERG % blk (1 μM test cmpd) of the following compound: N#CC1=C(N)OC2=C(C(=O)CCC2)C1c1ccc(Br)cc1 (stereo not drawn)
Result :: 15

Query :: Would you kindly share the measured hERG Patch Clamp hERG % blk (1 μM test cmpd) for `CCOC(=O)C1=C(C)N(C)C(C)=C(C(=O)OCC)C1c1cccc2ccccc12` ?
Result :: 26.5

Query :: Query (compound): `CCOC(=O)C1=C(C)NC(C)=C(C(=O)OCC)C1c1ccc2ccccc2c1` ; field requested: hERG Patch Clamp hERG % blk (1 μM test cmpd)
Result :: 11.5

Query :: If you can, please state the reported hERG Patch Clamp hERG % blk (1 μM test cmpd) value of CCOC(=O)C1=C(C)Nc2nnnn2C1c1csc2ccccc12 (stereo not drawn) .
Result :: 10

Query :: hERG Patch Clamp hERG % blk (1 μM test cmpd) lookup needed for CC1=C(C(=O)OCc2ccccc2)C(c2ccccc2N2CCN(S(C)(=O)=O)CC2)n2nnnc2N1 (stereo not drawn) , thanks.
Result :: 11.5

Query :: Recorded hERG Patch Clamp hERG % blk (1 μM test cmpd) for CC(=O)c1ccc(-c2ccccc2C2C(C(=O)OCc3ccccc3)=C(C)Nc3nnnn32)cc1 (stereo not drawn) , please?
Result :: 10.5

Query :: May I ask what hERG Patch Clamp hERG % blk (1 μM test cmpd) has been recorded for COc1cc(Cl)ccc1COC(=O)C1=C(C)NC2=C(C(=O)CCC2)C1c1c(Cl)cccc1Cl (stereo not drawn) ?
Result :: 12

Query :: Requested read-out: hERG Patch Clamp hERG % blk (1 μM test cmpd). Entry: `CC1=C(C(=O)OC(C)C)C(c2ccc(Br)s2)C(C(=O)OC(C)C)=C(C)N1`
Result :: 11.5

---

# TARGET ENTITY: hERG potassium channel (Homo sapiens)
# ASSAY COMMENT: hERG screening assay (PatchXpress patch clamp, CHO cells)
# DETAILS: 1 μM test cmpd
REPORTED PROPERTY: hERG Patch Clamp hERG % blk (1 μM test cmpd) (%)
# unit: % | format: bare number

Query :: So what does the record say about hERG Patch Clamp hERG % blk (1 μM test cmpd) for CC1=C(C(=O)OCc2ccc(Cn3cccn3)cc2)C(c2cccs2)n2nnnc2N1 (stereo not drawn) ?
Result :: 11.5

Query :: Consider the compound CC1=C(C(=O)OCc2ccccc2)C(c2cccs2)n2nnnc2N1 (stereo not drawn) and give its measured hERG Patch Clamp hERG % blk (1 μM test cmpd).
Result :: 14.5

Query :: # hERG Patch Clamp hERG % blk (1 μM test cmpd) lookup, item `CCOC(=O)C1=C(C)NC(C)=C(C(=O)OCC)C1c1cccs1`
Result :: 11.5

Query :: Fill blank: measured hERG Patch Clamp hERG % blk (1 μM test cmpd) of the compound COc1ccc(C2C(C(=O)OCc3ccccc3)=C(C)Nc3nnnn32)c(C#N)c1 (stereo not drawn) is ____.
Result :: 23.5

Query :: Given CCOC(=O)C1=C(C)Nc2nccn2C1c1ccc2ccccc2c1 (stereo not drawn) , state its recorded hERG Patch Clamp hERG % blk (1 μM test cmpd).
Result :: 13.5

Query :: Which value of hERG Patch Clamp hERG % blk (1 μM test cmpd) has been reported for CCOC(=O)C1=C(C)Nc2nnnn2C1c1ccccc1-n1ccnc1.Cl (stereo not drawn) in the records?
Result :: 17.5

Query :: Return reported hERG Patch Clamp hERG % blk (1 μM test cmpd); argument: CC1=C(C(=O)OCc2ccccc2)C(c2cccc3ccccc23)n2nnnc2N1C (stereo not drawn)
Result :: 12.5

Query :: Reported hERG Patch Clamp hERG % blk (1 μM test cmpd) for CCOC(=O)C1=C(C)Nc2c(c(C)nn2C)C1c1cccc2ccccc12 (stereo not drawn) : what is it?
Result :: 12

Query :: What value of hERG Patch Clamp hERG % blk (1 μM test cmpd) has been reported for the following compound? CC1=C(C(=O)OC(C)Cc2ccccc2)C(c2cccc3ccccc23)n2nnnc2N1 (stereo not drawn)
Result :: 20.5
